TGT: T1, Cynomolgus CD3εδ Fc heterodimer (Cy CD3ε Fc / CD3δ Fc-HIS) (cynomolgus, UniProt Q95LI8 22-100)
T1 chain 1: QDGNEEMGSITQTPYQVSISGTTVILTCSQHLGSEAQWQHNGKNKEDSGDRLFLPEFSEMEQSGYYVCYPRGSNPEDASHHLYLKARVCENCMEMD
T1 chain 2: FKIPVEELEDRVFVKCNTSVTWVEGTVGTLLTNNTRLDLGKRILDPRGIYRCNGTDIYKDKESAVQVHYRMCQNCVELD
EXPERIMENTAL_PROTOCOL: BLI (Octet), IgG on AHC sensor, pH 6.0
Mark Criterion not met for koff values under 0.007 s⁻¹, and Criterion met for everything at or above.

# BINDER, GROUP_LABEL
rows = [
    ("SAD10320_P01_H03 (ADI-57359) (antibody, V domains shown, IgG; also called Ab67) VH: QVQLVQSGAEVKKPGASVKVSCKASGFNIKDYYMHWVRQAPGQRPEWMGWIDLENANTIYDAKFQGRVTITRDTSASTAYMELSSLRSEDTAVYYCARDAAHRYFYDVWGQGTLVTVSS VL: DIVMTQSPDSLAVSLGERATINCKSSQSLLNARPRKNYLAWYQQKPGQPPKLLIYWASTRESGVPDRFSGSGSGTDFTLTISSLQAEDVAVYYCKQSHDRRTFGGGTKVEIK", "Criterion not met"),
    ("SAD10318_P03_F09 (ADI-57286) (antibody, V domains shown, IgG; also called Ab208) VH: QVQLVQSGAEVKKPGASVKVSCKASGFNIKDYYMHWVRQAPGQRLEWMGWIDLENANTIYDAKFQGRVTITRDTSASTAYMELSSLRSEDTAVYYCARDAYGHYHYDVWGQGTLVTVSS VL: DIVMTQSPDSLAVSLGERATINCKSSQSLLNAHPGKNYLAWYQQKPGQPPKLLIYWASTRESGVPDRFSGSGSGTDFTLTISSLQAEDVAVYYCHQSYHRRTFGGGTKVEIK", "Criterion not met"),
    ("SAD10319_P06_H10 (ADI-57435) (antibody, V domains shown, IgG; also called Ab165) VH: QVQLVQSGAEVKKPGASVKVSCKASGYTFESYDMHWVRQAPGPRLEWMGWIDAGTGNTKYSQKFQGRVTITADESTSTAYMELSSLRSEDTAVYYCARDHYGHYFYDVWGQGTLVTVSS VL: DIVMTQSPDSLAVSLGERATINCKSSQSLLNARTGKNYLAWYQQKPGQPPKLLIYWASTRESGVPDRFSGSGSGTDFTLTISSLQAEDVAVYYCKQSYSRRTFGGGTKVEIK", "Criterion met"),
    ("SAD10319_P06_A11 (ADI-57420) (antibody, V domains shown, IgG; also called Ab149) VH: QVQLVQSGAEVKKPGASVKVSCKASGYTFDSIAMHWVRQAPGQRLEWMGWINPATGNTDYSQKFQGRVTITRDTSASTAYMELSSLRSEDTAVYYCARDAYGHYFYDHWGQGTLVTVSS VL: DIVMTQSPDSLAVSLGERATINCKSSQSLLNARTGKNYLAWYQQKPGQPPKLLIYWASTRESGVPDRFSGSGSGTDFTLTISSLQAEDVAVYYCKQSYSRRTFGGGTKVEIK", "Criterion not met"),
    ("SAD10318_P04_F10 (ADI-57289) (antibody, V domains shown, IgG; also called Ab213) VH: QVQLVQSGAEVKKPGASVKVSCKASGFNIKDYYMHWVRQAPGQRLEWMGWIDLENANTIYDAKFQGRVTITRDTSASTAYMELSSLRSEDTAVYYCARDAYHRYHYDVWGQGTLVTVSS VL: DIVMTQSPDSLAVSLGERATINCKSSQSLLNARTHKNHLAWYQQKPGQPPKLLIYWASTRESGVPDRFSGSGSGTDFTLTISSLQAEDVAVYYCKQSYSRRTFGGGTKVEIK", "Criterion not met"),
    ("SAD10319_P02_E06 (ADI-57323) (antibody, V domains shown, IgG; also called Ab12) VH: QVQLVQSGAEVKKPGASVKVSCKASGYTFADYAMHWVRQAPGQRLAWMGWINPHTGATFYSQKFQGRVTITRDTSASTAYMELSSLRSEDTAVYYCARDAYGRYFYDHWGQGTLVTVSS VL: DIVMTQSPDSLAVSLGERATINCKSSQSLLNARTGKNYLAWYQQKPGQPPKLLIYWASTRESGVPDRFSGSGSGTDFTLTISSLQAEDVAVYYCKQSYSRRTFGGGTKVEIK", "Criterion not met"),
    ("SAD10320_P01_G01 (ADI-57346) (antibody, V domains shown, IgG; also called Ab51) VH: QVQLVQSGAEVKKPGASVKVSCKASGFNIKDYYMHWVRQAPGQRLEWMGWIDLENANTIYDAKFQGRVTITRDTSASTAYMELSSLRSEDTAVYYCARDAYGHSFYDVWGQGTLVTVSS VL: DIVMTQSPDSLAVSLGERATINCKSSQSLLNARTGKNYLAWYQQKPGQPPKLLIYWASTRESGVPDRFSGSGSGTDFTLTISSLQAEDVAVYYCKQSYHLRTFGGGTKVEIK", "Criterion met"),
    ("LAD9953_P01_H01 (ADI-57437) (antibody, V domains shown, IgG; also called Ab167) VH: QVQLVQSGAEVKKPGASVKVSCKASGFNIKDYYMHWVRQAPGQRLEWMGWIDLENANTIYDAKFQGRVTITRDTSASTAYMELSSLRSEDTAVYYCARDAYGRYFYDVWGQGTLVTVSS VL: DIVMTQSPDSLAVSLGERATINCKSSQSLLHARTHKNYLAWYQQKPGQPPKLLIYWASTRESGVPDRFSGSGSGTDFTLTISSLQAEDVAVYYCKQSYSRRTFGGGTKVEIK", "Criterion met"),
    ("SAD10319_P01_H02 (ADI-48625) (antibody, V domains shown, IgG; also called Ab242) VH: QVQLVQSGAEVKKPGASVKVSCKASGYTFTDYAMHWVRQAPGQRLEWMGWINPSTGATVYSQKFQGRVTITRDTSASTAYMELSSLRSEDTAVYYCARDAYHHYFYDVWGQGTLVTVSS VL: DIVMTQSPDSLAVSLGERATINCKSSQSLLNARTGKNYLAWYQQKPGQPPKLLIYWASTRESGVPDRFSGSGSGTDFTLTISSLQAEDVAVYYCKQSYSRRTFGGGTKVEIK", "Criterion met"),
]

Data origin, for the record: patent US20220380463A1
